Values compiled from patent EP0230922A2.

# Test system: Mäuse (ChbI: NMRI)
# assay comment: Hypoxia tolerance: survival of mice in a closed chamber (96,5 % N2, 3,5 % O2)
# Assay type: in vivo
# condition set: 30 mg/kg p.o., given 24 h, 16 h and 30 min before test; 10 mice per group

{"columns": ["molecule", "test target", "readout unit", "Behandelte Tiere Überlebende %"],
 "data": [
  ["CC(=O)S[C@@H](Cc1ccccc1)C(=O)N[C@@H](C)C(=O)N1CCC[C@H]1C(=O)OCOC(=O)C(C)(C)C [Verbindung 3]", "Mäuse (ChbI: NMRI)", "%", 30],
  ["C[C@H](NC(=O)[C@H](Cc1ccccc1)SC(=O)c1ccccc1)C(=O)N1CCC[C@H]1C(=O)O [Verbindung 2]", "Mäuse (ChbI: NMRI)", "%", 60],
  ["C[C@H](NC(=O)[C@@H](S)Cc1ccccc1)C(=O)N1CCC[C@H]1C(=O)OCOC(=O)C(C)(C)C [Verbindung 4]", "Mäuse (ChbI: NMRI)", "%", 30],
  ["C[C@H](NC(=O)[C@H](Cc1ccccc1)SCOC(=O)C(C)(C)C)C(=O)N1CCC[C@H]1C(=O)OCOC(=O)C(C)(C)C [Verbindung 1]", "Mäuse (ChbI: NMRI)", "%", 80]
]}
